The measurements presented in this section are drawn from patent US20230272011A1.

The following binders are shown together with reported kon values.
# system.under.test: T1, human serum albumin (human, UniProt P02768 25-609)
# T1 construct: mature; Bought protein; biotinylated in the Octet and HTRF assays; also called HSA; HuSA
# protocol: Octet biolayer interferometry, biotinylated albumin on SA sensors, pH 6.0

Recorded results for 3 binders are shown here.
HSA-31 (designed binder) MIPRGLSEAKPATPEIQEIVDKVKPQLEEKTNETYGKLEAVQYKTQVLAVWGPEYQHQSTNYYIKVRAGDNKYMHLKVFNGPNAGWPLVPEADRVLTGYQVDKNKDDELTGFHHHHHH | 116000 M⁻¹ s⁻¹
HSA-36 (designed binder) MIPRGLSEAKPATPEIQEIVDKVKPQLEEKTNETYGKLEAVQYKTQVLAGHYARYWPGSTNYYIKVRAGDNKYMHLKVFNGPWAQKSKVHQADRVLTGYQVDKNKDDELTGFHHHHHH | 15400 M⁻¹ s⁻¹
HSA-20 (designed binder) MIPRGLSEAKPATPEIQEIVDKVKPQLEEKTNETYGKLEAVQYKTQVLAGYWAAKWPGSTNYYIKVRAGDNKYMHLKVFNGPFPNTSYDLQADRVLTGYQVDKNKDDELTGFHHHHHH | 214000 M⁻¹ s⁻¹

--- query ---
Which kon reading was recorded for the binder HSA-41 (designed binder, also called HSA-41 parent; HSA-41 AH parent) MIPRGLSEAKPATPEIQEIVDKVKPQLEEKTNETYGKLEAVQYKTQVLANFFQRRWPGSTNYYIKVRAGDNKYMHLKVFNGPWKFRNTDRGADRVLTGYQVDKNKDDELTGFHHHHHH ?
278000 M⁻¹ s⁻¹
